# System: Enterococcus faecium
# experimental-protocol: MIC by agar dilution, EFAE 12712
# Type: cell-based
# stated-conditions: Enterococcus faecium, strain EFAE 12712, read-out: Antibacterial Activity Minimum Inhibitory Concentration EFAE 12712
property-measured: MIC (µg/mL)

Examples with answers:
Sure, the documented MIC for CCC(=S)NC[C@H]1CN(c2ccc([C@H]3CC[S@+2]([O-])([N-]CC(N)=O)CC3)c(F)c2)C(=O)O1 [Example 23] is 1

// sample CCC(=S)NC[C@H]1CN(c2ccc([C@H]3CC[S@+2]([O-])([N-]C)CC3)c(F)c2)C(=O)O1 [Example 13] , its MIC was 1

Entry CCC(=S)NCC1CN(c2ccc(C3CC[S+2]([O-])([N-]C(=O)OC)CC3)c(F)c2)C(=O)O1 (stereo not shown) [Example 19] , MIC reported as 1

Entry CCC(=S)NC[C@H]1CN(c2ccc([C@H]3CC[S@+2]([O-])([N-]C(N)=O)CC3)c(F)c2)C(=O)O1 [Example 22] , MIC reported as 0.5

(a) CCC(=S)NC[C@H]1CN(c2ccc(N3CCS(=N)(=O)CC3)c(F)c2)C(=O)O1 [Example 2]
(b) CN=S1(=O)CCN(c2ccc(N3C[C@H](CNC(=S)C4CC4)OC3=O)cc2F)CC1 [Example 26]
(c) CCC(=S)NCC1CN(c2ccc(C3CC[S+2]([O-])([N-]C(=O)Nc4ccc([N+](=O)[O-])cc4)CC3)c(F)c2)C(=O)O1 (stereo not shown) [Example 21]
// query Please list these in order of increasing MIC. Thank you! Put the labels in the requested order and write them down.
// result c, a, b
(c: 0.25 µg/mL, a: 0.5 µg/mL, b: 1 µg/mL)

====

# Tested on: Enterococcus faecium
# experimental-protocol: MIC by agar dilution, EFAE 12712
# Assay type: cell-based
# stated-conditions: strain EFAE 12712
The following compounds are listed with their measured Antibacterial Activity Minimum Inhibitory Concentration EFAE 12712 values.
The answer is to be given in µg/mL; state only the numeric part.

Measured on Enterococcus faecium, `CCC(=S)NC[C@H]1CN(c2ccc(N3CCS(=O)(=NC(=O)OC)CC3)c(F)c2)C(=O)O1` has a documented Antibacterial Activity Minimum Inhibitory Concentration EFAE 12712 of 0.5

Continuing:
Observed Antibacterial Activity Minimum Inhibitory Concentration EFAE 12712 on Enterococcus faecium, entry `CN=S1(=O)CCN(c2ccc(N3C[C@H](CNC(C)=O)OC3=O)cc2F)CC1` , equals 4

Value (Antibacterial Activity Minimum Inhibitory Concentration EFAE 12712, Enterococcus faecium) for record CCOC(=O)CN=S1(=O)CCC(c2ccc(N3C[C@H](CNC(=S)CC)OC3=O)cc2F)CC1 (single isomer, unassigned) = 1

Record COC(=O)N=S1(=O)CCC(c2ccc(N3C[C@H](CNC(=S)C4CC4)OC3=O)cc2F)CC1 (single isomer, unassigned) / Enterococcus faecium, Antibacterial Activity Minimum Inhibitory Concentration EFAE 12712 recorded as 0.5

Sample `CC(=O)N=S1(=O)CCN(c2ccc(N3C[C@H](CNC(C)=O)OC3=O)cc2F)CC1` , system: Enterococcus faecium. Its Antibacterial Activity Minimum Inhibitory Concentration EFAE 12712 is 4

Summary: `CC(=S)NC[C@H]1CN(c2ccc(N3CCS(=N)(=O)CC3)c(F)c2)C(=O)O1` , Enterococcus faecium, Antibacterial Activity Minimum Inhibitory Concentration EFAE 12712 = 1

The measured Antibacterial Activity Minimum Inhibitory Concentration EFAE 12712 that CC(=O)NC[C@H]1CN(c2ccc(C3CCS(=N)(=O)CC3)c(F)c2)C(=O)O1 (single isomer, unassigned) [Example 8] showed for Enterococcus faecium is 2

Entry `COC(=O)N=S1(=O)CCN(c2ccc(N3C[C@H](CNC(=S)C4CC4)OC3=O)cc2F)CC1` : Antibacterial Activity Minimum Inhibitory Concentration EFAE 12712 on Enterococcus faecium = 1

====

# System: H. influenzae
# experimental-protocol: MIC by agar dilution, HINF 30063
# Format: cell-based
# stated-conditions: Haemophilus influenzae, strain HINF 30063, read-out: Antibacterial Activity Minimum Inhibitory Concentration HINF 30063
property-measured: MIC (µg/mL)

Some solved cases for reference:
Entry C[N-][S+2]1([O-])CCC(c2ccc(N3CC(CNC(=S)C4CC4)OC3=O)cc2F)CC1 (centres unmarked) ; assay system H. influenzae; MIC recorded at 4

Recorded MIC for `CN=S1(=O)CCN(c2ccc(N3C[C@H](CNC(=S)C4CC4)OC3=O)cc2F)CC1` on H. influenzae was 4

Note to self: MIC of `N=S1(=O)CCN(c2ccc(N3C[C@H](CNC(=S)C4CC4)OC3=O)cc2F)CC1` with H. influenzae was 4

CCC(=S)NCC1CN(c2ccc(C3CC[S+2]([O-])([N-]C(=O)OC)CC3)c(F)c2)C(=O)O1 (centres unmarked) on H. influenzae gives MIC = 2

(I) CCC(=S)NC[C@H]1CN(c2ccc([C@H]3CC[S@+2]([O-])([N-]CC(N)=O)CC3)c(F)c2)C(=O)O1
(II) CCC(=S)NC[C@H]1CN(c2ccc(N3CCS(=N)(=O)CC3)c(F)c2)C(=O)O1
// query Of I and II , whose reported MIC is the larger number? Choose, then provide that item's label.
// result I

====

Parameter Antibacterial Activity Minimum Inhibitory Concentration SPYO 152: see the listing below.
# System: Streptococcus pyogenes
# experimental-protocol: MIC by agar dilution, SPYO 152
# Format: cell-based
# stated-conditions: strain SPYO 152
Just the number in µg/mL, nothing appended.

Solved cases (8 shown):
Entry `CC(=S)NC[C@H]1CN(c2ccc(N3CCS(=N)(=O)CC3)c(F)c2)C(=O)O1` — recorded Antibacterial Activity Minimum Inhibitory Concentration SPYO 152 = 0.25

According to the records, this compound CC(=O)N=S1(=O)CCC(c2ccc(N3C[C@H](CNC(C)=O)OC3=O)cc2F)CC1 (single isomer, unassigned) displays Antibacterial Activity Minimum Inhibitory Concentration SPYO 152 of 1

So for CCOC(=O)CN=S1(=O)CCC(c2ccc(N3C[C@H](CNC(=S)CC)OC3=O)cc2F)CC1 (single isomer, unassigned) , the logged Antibacterial Activity Minimum Inhibitory Concentration SPYO 152 turned out to be 16

response.value for CC(=O)NC[C@H]1CN(c2ccc(C3CCS(=O)(=NC(=O)NCc4ccccc4)CC3)c(F)c2)C(=O)O1 (single isomer, unassigned) (field: Antibacterial Activity Minimum Inhibitory Concentration SPYO 152) = 2

Value of measured Antibacterial Activity Minimum Inhibitory Concentration SPYO 152 for the entry N=S1(=O)CCC(c2ccc(N3C[C@H](CNC(=S)C4CC4)OC3=O)cc2F)CC1 (single isomer, unassigned) : 0.25

Antibacterial Activity Minimum Inhibitory Concentration SPYO 152 reading for CCC(=S)NC[C@H]1CN(c2ccc(C3CCS(=O)(=NCCO)CC3)c(F)c2)C(=O)O1 (single isomer, unassigned) : 0.5

Please fill in: Antibacterial Activity Minimum Inhibitory Concentration SPYO 152 reported for CCC(=S)NC[C@H]1CN(c2ccc(C3CCS(=N)(=O)CC3)c(F)c2)C(=O)O1 (single isomer, unassigned) = 0.25

Input `CCC(=S)NC[C@H]1CN(c2ccc(N3CCS(=O)(=NC(=O)OC)CC3)c(F)c2)C(=O)O1` . Output Antibacterial Activity Minimum Inhibitory Concentration SPYO 152: 0.5

Others:
Per the record, `CN=S1(=O)CCN(c2ccc(N3C[C@H](CNC(C)=O)OC3=O)cc2F)CC1` has Antibacterial Activity Minimum Inhibitory Concentration SPYO 152 of 2

====

Each item that follows carries a reported Antibacterial Activity Minimum Inhibitory Concentration EFAE 12712.
# Tested on: Enterococcus faecium
# experimental-protocol: MIC by agar dilution, EFAE 12712
# Type: cell-based
# stated-conditions: strain EFAE 12712
Number in µg/mL, nothing else.

Lookup result for CC(=O)NC[C@H]1CN(c2ccc(C3CCS(=N)(=O)CC3)c(F)c2)C(=O)O1 (single isomer, unassigned) [Example 4] ; measured Antibacterial Activity Minimum Inhibitory Concentration EFAE 12712: 4

Memo: CCC(=S)NC[C@H]1CN(c2ccc(C3CCS(=N)(=O)CC3)c(F)c2)C(=O)O1 (single isomer, unassigned) [Example 10] , reported Antibacterial Activity Minimum Inhibitory Concentration EFAE 12712: 0.5

Continuing:
Antibacterial Activity Minimum Inhibitory Concentration EFAE 12712 in this record for N=S1(=O)CCC(c2ccc(N3C[C@H](CNC(=S)C4CC4)OC3=O)cc2F)CC1 (single isomer, unassigned) [Example 11] : 0.5

====

# Tested on: Staphylococcus aureus
# experimental-protocol: MIC by agar dilution, SAUR 9213
# Assay type: cell-based
# stated-conditions: Staphylococcus aureus, strain SAUR 9213, read-out: Antibacterial Activity Minimum Inhibitory Concentration SAUR 9213
property-measured: MIC (µg/mL)

Item: `CCC(=S)NC[C@H]1CN(c2ccc([C@H]3CC[S@+2]([O-])([N-]C(N)=O)CC3)c(F)c2)C(=O)O1` | MIC: 2

(a) CCC(=S)NCC1CN(c2ccc(C3CC[S+2]([O-])([N-]C(=O)Nc4ccc([N+](=O)[O-])cc4)CC3)c(F)c2)C(=O)O1 (stereo not shown)
(b) CCC(=S)NCC1CN(c2ccc(C3CC[S+2]([O-])([N-]CCCc4ccccc4)CC3)c(F)c2)C(=O)O1 (stereo not shown)
(c) N=S1(=O)CCN(c2ccc(N3C[C@H](CNC(=S)C4CC4)OC3=O)cc2F)CC1
// query # rank by MIC, ascending (min first) Put the labels in the order asked and list them.
// result a, c, b

// data source = patent US20010046987A1
